FYI, the data here is from patent US20200360520A1.

tested on: Mycobacterium avium; assay: MIC by micro broth dilution method (resazurin microtiter assay); format: cell-based; conditions: MH Culture Medium, clinically isolated strain Avium (S559), read-out: Minimum Inhibitory Concentration (MIC)
MIC vs 0.2 µg/mL: less than gives satisfied; not less than gives not satisfied.

- molecule: "CC[C@H]1OC(=O)[C@H](C)[C@@H](O[C@H]2C[C@@](C)(OC)[C@@H](O)[C@H](C)O2)[C@H](C)[C@@H](O[C@@H]2O[C@H](C)C[C@H](N(C)C)[C@H]2O)[C@](C)(OC)C[C@@H](C)C(=O)[C@H](C)[C@@H](O)[C@]1(C)O [Clarithromycin]"
  assigned_label: "not satisfied"
- molecule: "CO[C@H]1/C=C/O[C@@]2(C)Oc3c(C)c(O)c4c(O)c(c(/C=N/N5CCN(C)CC5)c(O)c4c3C2=O)NC(=O)/C(C)=C\\C=C\\[C@H](C)[C@H](O)[C@@H](C)[C@@H](O)[C@@H](C)[C@H](OC(C)=O)[C@@H]1C [Rifampicin, rifampicin]"
  assigned_label: "satisfied"
- molecule: "CO[C@H]1/C=C/O[C@@]2(C)Oc3c(C)c(O)c4c(c3C2=O)C2=NC3(CCN(CC(C)C)CC3)NC2=C(NC(=O)/C(C)=C\\C=C\\[C@H](C)[C@H](O)[C@@H](C)[C@@H](O)[C@@H](C)[C@H](OC(C)=O)[C@@H]1C)C4=O [Rifabutin, rifabutin]"
  assigned_label: "satisfied"
- molecule: "COc1c(N2C[C@@H]3CCCN[C@@H]3C2)c(F)cc2c(=O)c(C(=O)O)cn(C3CC3)c12 [Moxifloxacin, moxifloxacin]"
  assigned_label: "not satisfied"
- molecule: "CO[C@H]1/C=C/O[C@@]2(C)Oc3c(C)c(O)c4c(O)c(c(/C=N/N5CCC(N(C)C6([C@@H]7CCN(c8c(F)cn9c(=O)c(C(=O)O)cc(C%10CC%10)c9c8C)C7)CC6)CC5)c(O)c4c3C2=O)NC(=O)/C(C)=C\\C=C\\[C@H](C)[C@H](O)[C@@H](C)[C@@H](O)[C@@H](C)[C@H](CC(C)=O)[C@@H]1C [Compound I]"
  assigned_label: "not satisfied"
- molecule: "Cc1ncc([N+](=O)[O-])n1CCO [Metronidazole, metronidazole]"
  assigned_label: "not satisfied"
